# experimental_target: Human NHE-1 (Homo sapiens)
# Construct: expressed in transfected cells; host or cells: CCL39-derived PS120 cells (PS120/NHE-1)
# Sequence (P19634 whole entry): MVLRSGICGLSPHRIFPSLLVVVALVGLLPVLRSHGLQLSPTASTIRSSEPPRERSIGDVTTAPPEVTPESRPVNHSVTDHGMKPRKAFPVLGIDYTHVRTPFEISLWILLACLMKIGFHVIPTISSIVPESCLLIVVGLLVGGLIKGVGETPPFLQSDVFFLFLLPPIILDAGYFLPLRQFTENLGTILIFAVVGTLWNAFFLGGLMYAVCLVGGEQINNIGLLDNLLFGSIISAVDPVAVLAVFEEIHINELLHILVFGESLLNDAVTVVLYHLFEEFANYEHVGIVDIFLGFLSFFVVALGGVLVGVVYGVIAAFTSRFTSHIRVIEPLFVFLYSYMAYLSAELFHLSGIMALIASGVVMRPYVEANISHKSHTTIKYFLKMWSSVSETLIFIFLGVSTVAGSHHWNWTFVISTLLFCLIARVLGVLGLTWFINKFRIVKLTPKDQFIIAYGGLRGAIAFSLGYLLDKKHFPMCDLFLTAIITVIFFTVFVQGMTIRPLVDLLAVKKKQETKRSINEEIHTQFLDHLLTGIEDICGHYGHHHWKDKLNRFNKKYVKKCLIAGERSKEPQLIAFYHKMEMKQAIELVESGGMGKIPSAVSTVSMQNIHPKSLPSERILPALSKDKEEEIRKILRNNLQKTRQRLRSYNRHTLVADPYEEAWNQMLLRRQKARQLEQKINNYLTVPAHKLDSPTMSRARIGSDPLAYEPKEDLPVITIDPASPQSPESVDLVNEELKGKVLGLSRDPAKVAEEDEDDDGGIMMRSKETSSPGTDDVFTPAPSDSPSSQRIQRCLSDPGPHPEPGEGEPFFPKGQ
# assay_remarks: Inhibitory effect on NHE-1 in PS120/NHE-1 cells (recovery from intracellular acidosis, BCECF fluorescence)
# Assay type: cell-based
# stated_conditions: human NHE-1 expressed PS120 cells; concentration at which recovery from intracellular acidosis was 50% inhibited
Exercise: for every item that follows, state its recorded pIC50.
Numbers only, as −log10 of the molar value.

NC(N)=NC(=O)c1cc2c(-c3cc(F)cc(F)c3)cccc2s1 [Example 24, Methanesulfonate] = 5.29
CS(=O)(=O)O.NC(N)=NC(=O)c1cc2c(Cl)cccc2s1 [Example 32, Methanesulfonate] = 6.70
N#Cc1cccc2sc(C(=O)NC(=N)N)cc12 [Example 42, Methanesulfonate] = 5.69
CS(=O)(=O)O.Cc1ccc2sc(C(=O)N=C(N)N)cc2c1C [Example 47, Methanesulfonate] = 6.12
CS(=O)(=O)O.NC(N)=NC(=O)c1cc2c(-c3cc(Cl)cc(Cl)c3)cccc2s1 [Example 19, Methanesulfonate] = 6.17

Field: pIC50. Fill in for each record below.
1. N=C(N)NC(=O)c1cc2c([N+](=O)[O-])cccc2s1 [Example 39, Methanesulfonate]
2. NC(N)=NC(=O)c1cc2c(-c3cc(F)ccc3F)cccc2s1 [Example 25, Methanesulfonate]
3. N=C(N)NC(=O)c1cc2c(F)cccc2s1 [Example 33, Methanesulfonate]
4. Cc1ccc(C)c(-c2cccc3sc(C(=O)N=C(N)N)cc23)c1 [Example 31, Methanesulfonate]
5. NC(N)=NC(=O)c1cc2c(-c3cccc(F)c3)cccc2s1 [Example 6, Methanesulfonate]
6. NC(N)=NC(=O)c1cc2c(-c3cccc(C(F)(F)F)c3)cccc2s1 [Example 15, Methanesulfonate]

1. 5.63
2. 5.07
3. 5.76
4. 5.00
5. 5.25
6. 5.36

The origin of these recorded values is patent US8143307B2.
